test system: HepG2-CANX-COX4; experiment: phenotypically active (imaging signature differs from DMSO and reproducible) at any of 0.3-9 uM (binary (1 = active, 0 = inactive)); higher = active; settings: treatment time: 24 h
Where a name gives a salt, the structure may show the parent alone.
Reported phenotypically active by item:
Give your answer as a number; write no unit.

Solved cases below.
CCO[C@@H](Cc1ccc(OCCc2ccc(OS(C)(=O)=O)cc2)cc1)C(=O)O ... 0
Cc1ccc(NC(=O)c2cccc(C(C)(C)C#N)c2)cc1Nc1ccc2ncn(C)c(=O)c2c1 ... 1
O=c1cc(N2CCOCC2)oc2c(-c3ccccc3)cccc12 ... 0

Query: Data request, read-out phenotypically active, for COC(=O)[C@H]1[C@H]2C[C@H]3c4[nH]c5ccccc5c4CCN3C[C@H]2CC[C@@H]1O [Rauwolscine hydrochloride]
Reply: 0

Query: Same for "C[C@@H]1CCN(C(=O)CC#N)C[C@@H]1N(C)c1ncnc2[nH]ccc12"
Reply: 1

Query: Next entry: "O=C(NCCCNc1nc(Nc2cccc(NC(=O)N3CCCC3)c2)ncc1I)c1cccs1"
Reply: 1

Query: Lookup CNC1CCC2(C)C(=CCC3C2CCC24CN(C)C(C)C2CCC34)C1 (stereo unspecified)
Reply: 1

Query: And the next one, "O=c1oc2c(O)c(O)cc3c(=O)oc4c(O)c(O)cc1c4c23" ?
Reply: 0

Query: And what about the compound "CC(=O)[C@@]1(O)CC[C@H]2[C@@H]3C[C@H](C)C4=CC(=O)C=C[C@]4(C)[C@@]3(F)[C@@H](O)C[C@@]21C" ?
Reply: 0

Query: Moving on to "Cc1cc(C)nc(SCC(=O)Nc2ncc(Cc3cccc4ccccc34)s2)n1"
Reply: 0

Query: Note, next up: OCCOCCN1CCN(C2=Nc3ccccc3Sc3ccccc32)CC1 [Quetiapine hemifumarate]
Reply: 0

Query: Item: COC(=O)[C@@H]1[C@H]2C[C@H]3c4[nH]c5ccccc5c4CCN3C[C@@H]2CC[C@@H]1O [Yohimbine hydrochloride]
Reply: 0
